Where do these numbers come from? They come from patent US6521655B1.

# Tested on: TNF-α
# assay procedure: in vivo LPS induced TNF-α production, mice
# Set-up: species or system Mice (BALB/cJ females)
# protocol conditions: 25 mg/kg, oral, LPS 1 mg/kg i.p.
Binary label based on % Inhibition TNF-α Mice with cut-off 70%: below gives true, not below gives false.

compound	class
CCCC#Cc1nc(-c2ccc(F)cc2)c(-c2ccncc2)n1CCCc1ccccc1 [compound 34]	true

Does this compound meet the criterion % Inhibition TNF-α Mice < 70%? CCCC#Cc1nc(-c2ccncc2)c(-c2ccc(F)cc2)[nH]1 [compound 28]
false

Hi there! Is % Inhibition TNF-α Mice for OCCC#Cc1nc(-c2ccc(F)cc2)c(-c2ccncc2)n1CCCc1ccccc1 [Cpd. 4] below 70%, do you know?
true

# strict comparison: is reported % Inhibition TNF-α Mice < 70%? input = OCCCC#Cc1nc(-c2ccc(F)cc2)c(-c2ccncc2)[nH]1 [compound 19]
true

Hi there! Is % Inhibition TNF-α Mice for OCCCCC#Cc1nc(-c2ccc(F)cc2)c(-c2ccncc2)n1CCCc1ccccc1 [compound 43] below 70%, do you know?
true

Is the reported % Inhibition TNF-α Mice for CCCC#Cc1nc(-c2ccncc2)c(-c2ccc(F)cc2)n1COCC[Si](C)(C)C [compound 26] strictly below 70%?
true

Please determine if OCCCCC#Cc1nc(-c2ccc(F)cc2)c(-c2ccncc2)[nH]1 [compound 24] is below 70% in terms of % Inhibition TNF-α Mice.
false

---

# test system: purified recombinant p38 (Homo sapiens)
# Construct: 6xHis
# Sequence (Q16539 whole entry): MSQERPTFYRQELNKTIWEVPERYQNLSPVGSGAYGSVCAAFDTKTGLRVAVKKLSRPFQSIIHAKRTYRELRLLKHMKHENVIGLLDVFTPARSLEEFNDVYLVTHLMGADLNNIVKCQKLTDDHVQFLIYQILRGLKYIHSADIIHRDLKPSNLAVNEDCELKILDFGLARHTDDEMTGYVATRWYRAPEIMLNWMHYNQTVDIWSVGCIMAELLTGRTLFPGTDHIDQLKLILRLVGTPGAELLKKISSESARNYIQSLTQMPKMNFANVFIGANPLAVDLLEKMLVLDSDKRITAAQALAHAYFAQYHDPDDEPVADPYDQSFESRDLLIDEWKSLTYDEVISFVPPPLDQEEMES
# assay procedure: p38 in vitro enzyme assay (33P-ATP, myelin basic protein substrate)
# protocol conditions: read-out: p-38 IC50
What pIC50 was measured for each of the following?
Answers are plain numbers, as −log10 of the molar value.

# count of solved cases: 2
N#CCCCC#Cc1nc(-c2ccc(F)cc2)c(-c2ccncc2)n1CCCc1ccccc1 5.82
Fc1ccc(-c2[nH]c(/C=C/Cl)nc2-c2ccncc2)cc1 5.82

Which pIC50 reading was recorded for the molecule OCCC#Cc1nc(-c2ccc(F)cc2)c(-c2ccncc2)n1CCCc1ccccc1 ?
6.19
